Biological target: Mitogen-activated protein kinase kinase kinase 20 (Homo sapiens)
Sequence (Q9NYL2 2-800 limits assumed): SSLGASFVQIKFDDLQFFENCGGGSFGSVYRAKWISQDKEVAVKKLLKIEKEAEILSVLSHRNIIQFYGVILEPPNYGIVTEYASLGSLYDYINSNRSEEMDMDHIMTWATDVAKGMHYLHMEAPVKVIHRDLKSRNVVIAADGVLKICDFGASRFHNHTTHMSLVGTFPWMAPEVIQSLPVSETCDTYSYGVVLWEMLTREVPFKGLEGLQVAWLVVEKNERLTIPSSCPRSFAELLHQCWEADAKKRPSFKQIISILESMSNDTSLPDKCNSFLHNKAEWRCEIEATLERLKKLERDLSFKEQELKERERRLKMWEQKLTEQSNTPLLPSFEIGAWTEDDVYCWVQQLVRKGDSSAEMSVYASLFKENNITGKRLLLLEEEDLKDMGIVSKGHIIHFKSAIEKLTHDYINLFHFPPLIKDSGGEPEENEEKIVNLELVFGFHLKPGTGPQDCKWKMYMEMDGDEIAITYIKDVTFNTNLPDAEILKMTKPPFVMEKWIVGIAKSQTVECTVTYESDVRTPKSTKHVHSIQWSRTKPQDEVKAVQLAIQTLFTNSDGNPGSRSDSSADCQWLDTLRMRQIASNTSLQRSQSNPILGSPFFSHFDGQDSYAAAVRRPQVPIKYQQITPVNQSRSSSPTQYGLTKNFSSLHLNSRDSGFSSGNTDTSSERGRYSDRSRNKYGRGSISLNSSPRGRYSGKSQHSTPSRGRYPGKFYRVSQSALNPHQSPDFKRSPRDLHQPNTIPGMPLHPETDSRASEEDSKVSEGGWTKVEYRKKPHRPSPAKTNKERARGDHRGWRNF
Test: Binding affinity to wild-type human partial length ZAK (M1 to L331 residues) expressed in bacterial expression system assessed as residual binding level at 100 nM by Kinomescan method relative to control
measured.attribute: Activity (%)
Express your answer in %, writing the number without its unit.

Past entries and their recorded results:
CCCS(=O)(=O)Nc1ccc(F)c(C(=O)c2n[nH]c3ncc(-c4ccc(C(C)C)cc4)cc23)c1F	92
CCCS(=O)(=O)Nc1ccc(F)c(C(=O)c2n[nH]c3ncc(-c4ccc(S(=O)(=O)NC)cc4)cc23)c1F	33
CCCS(=O)(=O)Nc1ccc(F)c(C(=O)c2n[nH]c3ncc(-c4cccc(C)c4)cc23)c1F	5.5

Look up Activity: CCCS(=O)(=O)Nc1ccc(F)c(C(=O)c2n[nH]c3ncc(-c4ccc(F)cc4C)cc23)c1F
65

Which Activity reading was recorded for the molecule CCCS(=O)(=O)Nc1ccc(F)c(C(=O)c2n[nH]c3ncc(-c4ccc(O)cc4)cc23)c1F ?
0

Activity for CCCS(=O)(=O)Nc1ccc(F)c(C(=O)c2n[nH]c3ncc(-c4ccc(C)cc4)cc23)c1F ?
5.9

What does the data say about its Activity? Entry: CCCS(=O)(=O)Nc1ccc(F)c(C(=O)c2n[nH]c3ncc(-c4ccccc4C)cc23)c1F
41

# input molecule: CCCS(=O)(=O)Nc1ccc(F)c(C(=O)c2n[nH]c3ncc(-c4ccc(Cl)cc4Cl)cc23)c1F ; wanted: its Activity
99
